# system: T1, IL-11 stably expressed on CHO cells (membrane-IL-11 CHO) (UniProt P20809 22-199)
# T1 construct: whole, on cells
# T1 sequence (looked up): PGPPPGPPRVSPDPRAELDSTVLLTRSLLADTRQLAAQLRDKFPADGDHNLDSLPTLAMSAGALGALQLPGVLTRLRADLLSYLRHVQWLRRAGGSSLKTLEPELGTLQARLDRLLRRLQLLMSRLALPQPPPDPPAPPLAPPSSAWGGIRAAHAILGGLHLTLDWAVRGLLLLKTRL
# assay method text: flow cytometry on membrane-IL-11 CHO cells, detection with goat-anti-Fc-FITC
measured attribute: EC50 (read off the curve)

binder | reading
MIL-11 mab-03 (antibody, IgG1, V domains shown, also called 1F12 full-length antibody) VH: QVQLVQSGAEVKKPGASVKVSCKASDYTFTNYWLGWVRQAPGQGLEWMGHIYPGGGYTNYNEKFKGRVTMTRDTSTSTVYMELSSLRSEDTAVYYCARVSSGNDALDFWGQGTLVTVSS VL: EIVLTQSPATLSLSPGERATLSCRASESVDEYGISFMNWFQQKPGQAPRLLIYSASNQASGIPARFSGSGSGTDFTLTISSLEPEDFAVYFCQQSKELPWTFGGGTKLEIK | ~2 µg/mL
